Tested on: Ly-BP RUNX1 p.R204Q
ASSAY: drug sensitivity score (DSS) (DSS score); higher = more sensitive (stronger growth inhibition); extreme values may be limits of the assay
This listing pairs molecules with measured drug sensitivity score.

[
  {
    "SAMPLE SMILES": "CC1(C)CNc2cc(NC(=O)c3cccnc3NCc3ccncc3)ccc21",
    "drug sensitivity score": 0
  },
  {
    "SAMPLE SMILES": "O=C(CCBr)N1CCN(C(=O)CCBr)CC1",
    "drug sensitivity score": 0
  },
  {
    "SAMPLE SMILES": "C=C(c1ccc(C(=O)O)cc1)c1cc2c(cc1C)C(C)(C)CCC2(C)C",
    "drug sensitivity score": 4.2
  },
  {
    "SAMPLE SMILES": "CNC(=O)c1ccccc1Sc1ccc2c(/C=C/c3ccccn3)n[nH]c2c1",
    "drug sensitivity score": 20
  },
  {
    "SAMPLE SMILES": "C[C@]1(c2nc3c(C(N)=O)cccc3[nH]2)CCCN1",
    "drug sensitivity score": 0
  },
  {
    "SAMPLE SMILES": "CCC/C=C/C=C/C(=O)O[C@H]1/C(=C/C(=O)OC)C[C@H]2C[C@H]([C@@H](C)O)OC(=O)C[C@H](O)C[C@@H]3C[C@H](OC(C)=O)C(C)(C)[C@](O)(C[C@@H]4C/C(=C/C(=O)OC)C[C@H](/C=C/C(C)(C)[C@]1(O)O2)O4)O3",
    "drug sensitivity score": 0
  },
  {
    "SAMPLE SMILES": "CO[C@@H]1[C@H](N(C)C(=O)c2ccccc2)C[C@H]2O[C@]1(C)n1c3ccccc3c3c4c(c5c6ccccc6n2c5c31)C(=O)NC4",
    "drug sensitivity score": 0
  },
  {
    "SAMPLE SMILES": "C[C@]12C=CC(=O)C=C1CC[C@@H]1[C@@H]2[C@@H](O)C[C@@]2(C)[C@H]1CC[C@]2(O)C(=O)CO",
    "drug sensitivity score": 21.2
  }
]

Taken from the supplement of paper PMC8024199.
